Assay: Cell Viability - LYMP2-019 (AID 973);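 note: cells exposed to compound for 24 h at 37 °C; nearly all actives have a fitted effect of over 55% in size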
Details: LYMP2-019 lymphoblastoid cell line viability; series mostly up to 92.2 µM
Results filed as inconclusive are left out. Calls of active or inactive are those of the source. Calls come from the whole dose curve; as a rule, active = well fitted cell-killing curve with a large enough effect; inconclusive = small, poorly fitted or top-dose-only effect; inactive = flat fitted curve, though single readings scatter.
Mark one answer only. Choices: active, inactive

Worked set:
1. CCOC(=O)CBr :: inactive
2. O=C(O)CBr :: inactive
3. CC(C#N)CCC#N (stereo unspecified) :: inactive

Short answer needed: outcome of this test for CCCBr ?
inactive

Repeat with O=[N+]([O-])c1ccccc1CCl
active

Repeat with O=[N+]([O-])/C=C/c1ccccc1
active

Repeat with CC[N+](=O)[O-]
inactive

Repeat with c1ccoc1
inactive

Repeat with Clc1ccc(C(Cl)(Cl)Cl)c(Cl)c1
inactive

###

Experiment: Cell Viability - LYMP2-024 (AID 988);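 note: cells exposed to compound for 24 hr at 37 °C; nearly all actives have a fitted effect of over 60% in size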
Settings: LYMP2-024 lymphoblastoid cell viability; series mostly up to 92.2 µM
Source text: NIH Chemical Genomics Center [NCGC] NIH Molecular Libraries Screening Centers Network [MLSCN] National Institutes of Environmental Health Sciences [NIEHS] National Toxicology Program [NTP] We have developed a 1536-well cell-based assay for quantitative high throughput screening (qHTS) against a number of cell lines to determine in vitro cytotoxicity of small molecules. […] 8. Detection; Luminescence; Viewlux plate reader […]
Records with an inconclusive call do not appear. Calls of active or inactive are those of the source. Calls come from the whole dose curve; as a rule, active = well fitted cell-killing curve with a large enough effect; inconclusive = small, poorly fitted or top-dose-only effect; inactive = flat fitted curve, though single readings scatter.
Mark one answer only. Choices: 1 (yes) = active, 0 (no) = inactive

Worked set:
1. N#CCBr :: 0 (no)
2. OC[P+](CO)(CO)CO :: 1 (yes)
3. C=CC(=O)OCCN(C)C :: 0 (no)
4. C=C(C)CCl :: 0 (no)
5. CC(=O)[O-].CC(=O)[O-].CC(=O)[O-].[Cr+3] :: 0 (no)

Short answer needed: outcome of this test for C=CCO ?
0 (no)

Repeat with Oc1cccc(Cl)c1
0 (no)

Repeat with Oc1cccc(Cl)c1Cl
0 (no)

Repeat with CCC[N+](=O)[O-]
0 (no)

Repeat with Oc1cc(Cl)ccc1Cl
0 (no)

Repeat with C=CCBr
0 (no)

Repeat with COc1cc(-c2ccc(N)c(OC)c2)ccc1N
0 (no)

Repeat with CCN(CC)N=O
0 (no)

Repeat with O=S(=O)(Cl)c1ccccc1
0 (no)

Repeat with Nc1ccc(Cl)c(Cl)c1
0 (no)

###

Target: Mitogen-activated protein kinase 10 (Mus musculus) (UniProt Q61831)
Test: JNK3 AlphaScreen Assay (AID 530);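 note: kinase came from lysate of stimulated human HepG2 cells; signal reports phosphorylation of biotinylated GST-cJun 1-79 at Ser73 with 10 µM ATP; % is set by controls: 0 for no effect and ±100 for the full control effect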
Conditions: JNK3 lysate, c-Jun phosphorylation; series mostly up to 57.1 µM
Source text: NIH Chemical Genomics Center [NCGC] NIH Molecular Libraries Screening Centers Network [MLSCN] The c-jun N-terminal kinase (JNK) family are serine/threonine protein kinases that phosphorylate c-jun, a component of the transcription factor protein-1 (AP-1). […] A homogeneous AlphaScreen is developed to measure the activity of JNK3. […] The phosphorylation of a biotinylated c-jun substrate by JNK3 can be detected with an antibody raised against phosphorylated c-jun. […]
Records with an inconclusive call do not appear. Calls of active or inactive are those of the source. Calls come from the whole dose curve; as a rule, active = well fitted curve in either direction with a large enough effect (not every such curve was filed as active); inconclusive = small, poorly fitted or top-dose-only effect, or another doubt; inactive = flat fitted curve, though single readings scatter.
MEASUREMENT_LABEL: activity change, negative = inhibition

Would you please look over these solved cases?
1. CC(C)[C@@]1(NC(=O)[C@H]2C[C@H]3c4cccc5[nH]cc(c45)C[C@@H]3N(C)C2)O[C@]2(O)[C@H]3CCCN3C(=O)[C@H](Cc3ccccc3)N2C1=O :: inactive
2. C[C@@](Br)(C(=O)O)[C@H](Br)C(=O)O :: 1.39% [at 11.4 µM] (inactive)
3. [N-]=[N+]=[N-] :: inactive
4. O=P(O)(O)c1ccccc1 (tested in a mixture with another compound) :: 6.51% [at 11.4 µM] (inactive)
5. C[C@H](CN(C)C)C(C#N)(c1ccccc1)c1ccccc1 :: 6.57% [at 11.4 µM] (inactive)

Working through the 2 molecules below one at a time, give activity change, negative = inhibition for each.
1. N#CCBr
2. N[C@H](Cc1ccccc1)c1nn[nH]n1

["inactive", "5.89% [at 11.4 µM] (inactive)"]

Working through the 3 molecules below one at a time, give activity change, negative = inhibition for each.
1. OCCOCCO
2. Nc1cc(Cl)ccc1Cl
3. COc1ccc2c(c1)[C@]13CCCC[C@@H]1[C@H](C2)NCC3

inactive
inactive
inactive

Working through the 4 molecules below one at a time, give activity change, negative = inhibition for each.
1. O=[N+]([O-])c1c(Cl)c(Cl)c(Cl)c(Cl)c1Cl
2. O=NN1CCCCC1
3. O=[N+]([O-])c1ccc(O)c([N+](=O)[O-])c1
4. Oc1cc(Cl)c(Cl)c(Cl)c1

inactive
inactive
inactive
inactive
